Kindly state ILS at 200 mg/kg for each of the entries shown.
- Tested on: mouse fibrosarcoma M5076
- measurement-notes: anti-tumor effect in mice inoculated subcutaneously with M5076 fibrosarcoma
- Type: in vivo, mouse (female BDF1)
- test-parameters: Mus musculus; M5076 s.c. in mice; 200 mg/kg iv on days 1, 5 and 9; median survival vs control (Dc 40-47 days); read-out: ILS (%) (increase in life span)
- Protocol: The test animals used were female mice, 8 weeks old, of the BDF1 strain, weighing 20-25 g. The mice were purchased from Charles River Japan Inc., Kanagawa, Japan. The mice were divided into experimental groups, each group containing 6 mice, and all mice within each group were treated identically. Each mouse was inoculated subcutaneouly with 1×10^6viable cells (the number of cells was measured by a dye exclusion method under microscopy) of the mouse fibrosarcoma M5076. […]
Write down the numeric answer in % and omit the unit.

Query: Would you mind telling me what ILS at 200 mg/kg value was observed for CCCCCCCC/C=C\CCCCCCCC(=O)Oc1cc(OC(=O)CCCCCCC/C=C\CCCCCCCC)c2c(c1Cl)CC(=O)/C=C/C=C\[C@H]1O[C@@H]1C[C@@H](C)OC2=O [72(cis), 14,16-dioleoylradicicol] ?
Result: 4

Query: Could you do the same for CCCCCCCCCCCCCCCCC(=O)Oc1cc(OC(=O)CCCCCCCCCCCCCCCC)c2c(c1Cl)CC(=O)/C=C/C=C\[C@H]1O[C@@H]1C[C@@H](C)OC2=O [Compound 28, 14,16-diheptadecanoylradicicol] , please?
Result: 27

Query: Could you do the same for CCCCCCCCCCCCCCC(=O)Oc1cc(OC(=O)CCCCCCCCCCCCCC)c2c(c1Cl)CC(=O)/C=C/C=C\[C@H]1O[C@@H]1C[C@@H](C)OC2=O [Compound 23, 14,16-dipentadecanoylradicicol] , please?
Result: 35

Query: Could you do the same for CCCCCCCCCCCCCC(=O)Oc1cc(OC(=O)CCCCCCCCCCCCC)c2c(c1Cl)CC(=O)/C=C/C=C\[C@H]1O[C@@H]1C[C@@H](C)OC2=O [Compound 21, 14,16-dimyristoylradicicol] , please?
Result: 35

Query: Could you do the same for CCCCCCCCCCCC(=O)Oc1cc(OC(=O)CCCCCCCCCCC)c2c(c1Cl)CC(=O)/C=C/C=C\[C@H]1O[C@@H]1C[C@@H](C)OC2=O [Compound 17, 14,16-dilauroylradicicol] , please?
Result: 24

###

- System: mouse fibrosarcoma M5076
- measurement-notes: anti-tumor effect in mice inoculated subcutaneously with M5076 fibrosarcoma
- Format: in vivo, mouse (female BDF1)
- test-parameters: Mus musculus, 336 h; M5076 s.c. in mice; 200 mg/kg iv on days 1, 5 and 9; tumor size on day 14; read-out: growth Inhibition (%)
Please note: y applies when inhibition in vivo at 200 mg/kg is 90% or greater, and n applies otherwise.

Query: Threshold query (inhibition in vivo at 200 mg/kg >= 90%) on CCCCCC/C=C\CCCCCCCC(=O)Oc1cc(OC(=O)CCCCCCC/C=C\CCCCCC)c2c(c1Cl)CC(=O)/C=C/C=C\[C@H]1O[C@@H]1C[C@@H](C)OC2=O [Compound 70, 14,16-dipalmitoleoylradicicol]
Result: n

Query: Could you do the same for CCCCCCCCCCCCCCCCC(=O)Oc1cc(OC(=O)CCCCCCCCCCCCCCCC)c2c(c1Cl)CC(=O)/C=C/C=C\[C@H]1O[C@@H]1C[C@@H](C)OC2=O [Compound 28, 14,16-diheptadecanoylradicicol] , please?
Result: y

Query: Could you do the same for CCCCCCCCCCCCCCCC(=O)Oc1cc(OC(=O)CCCCCCCCCCCCCCC)c2c(c1Cl)CC(=O)/C=C/C=C\[C@H]1O[C@@H]1C[C@@H](C)OC2=O [Compound 25, 14,16-dipalmitoylradicicol] , please?
Result: y

Query: Could you do the same for CCCCCCCCCCCCCCC(=O)Oc1cc(OC(=O)CCCCCCCCCCCCCC)c2c(c1Cl)CC(=O)/C=C/C=C\[C@H]1O[C@@H]1C[C@@H](C)OC2=O [Compound 23, 14,16-dipentadecanoylradicicol] , please?
Result: y

Query: Could you do the same for CCCCCCCC/C=C/CCCCCCCC(=O)Oc1cc(OC(=O)CCCCCCC/C=C/CCCCCCCC)c2c(c1Cl)CC(=O)/C=C/C=C\[C@H]1O[C@@H]1C[C@@H](C)OC2=O [72(trans), 14,16-dielaidoylradicicol] , please?
Result: n

Query: Could you do the same for CCCCCCCC/C=C\CCCCCCCC(=O)Oc1cc(OC(=O)CCCCCCC/C=C\CCCCCCCC)c2c(c1Cl)CC(=O)/C=C/C=C\[C@H]1O[C@@H]1C[C@@H](C)OC2=O [72(cis), 14,16-dioleoylradicicol] , please?
Result: n

###

- System: mouse fibrosarcoma M5076
- measurement-notes: anti-tumor effect in mice inoculated subcutaneously with M5076 fibrosarcoma
- Type: in vivo, mouse (female BDF1)
- test-parameters: Mus musculus; M5076 s.c. in mice; 200 mg/kg iv on days 1, 5 and 9; median survival vs control (Dc 40-47 days); read-out: ILS (%) (increase in life span)
Kindly state ILS at 200 mg/kg for each of the entries shown.
Write down the numeric answer in % and omit the unit.

Query: Would you mind telling me what ILS at 200 mg/kg value was observed for CCCCCCCCCCCCC(=O)Oc1cc(OC(=O)CCCCCCCCCCCC)c2c(c1Cl)CC(=O)/C=C/C=C\[C@H]1O[C@@H]1C[C@@H](C)OC2=O ?
Result: 9

Query: Could you do the same for CCCCCCCCCCCCCCCC(=O)Oc1cc(OC(=O)CCCCCCCCCCCCCCC)c2c(c1Cl)CC(=O)/C=C/C=C\[C@H]1O[C@@H]1C[C@@H](C)OC2=O , please?
Result: 43

Query: Could you do the same for CCCCCCCC/C=C/CCCCCCCC(=O)Oc1cc(OC(=O)CCCCCCC/C=C/CCCCCCCC)c2c(c1Cl)CC(=O)/C=C/C=C\[C@H]1O[C@@H]1C[C@@H](C)OC2=O [72(trans), 14,16-dielaidoylradicicol] , please?
Result: 9

Query: Could you do the same for CCCCCC/C=C\CCCCCCCC(=O)Oc1cc(OC(=O)CCCCCCC/C=C\CCCCCC)c2c(c1Cl)CC(=O)/C=C/C=C\[C@H]1O[C@@H]1C[C@@H](C)OC2=O , please?
Result: 31

###

- Tested on: mouse fibrosarcoma M5076
- measurement-notes: anti-tumor effect in mice inoculated subcutaneously with M5076 fibrosarcoma
- Type: in vivo, mouse (female BDF1)
- test-parameters: Mus musculus, 336 h; M5076 s.c. in mice; 200 mg/kg iv on days 1, 5 and 9; tumor size on day 14; read-out: growth Inhibition (%)
parameter-measured: inhibition in vivo at 200 mg/kg (%)
Write down the numeric answer in % and omit the unit.

Query: Give inhibition in vivo at 200 mg/kg (mouse fibrosarcoma M5076) of the following compound: CCCCCCCCCCCC(=O)Oc1cc(OC(=O)CCCCCCCCCCC)c2c(c1Cl)CC(=O)/C=C/C=C\[C@H]1O[C@@H]1C[C@@H](C)OC2=O
Result: 89

Query: Could you do the same for CCCCCCCCCCCCC(=O)Oc1cc(OC(=O)CCCCCCCCCCCC)c2c(c1Cl)CC(=O)/C=C/C=C\[C@H]1O[C@@H]1C[C@@H](C)OC2=O , please?
Result: 89

Query: Could you do the same for CCCCCCCCCCCCCC(=O)Oc1cc(OC(=O)CCCCCCCCCCCCC)c2c(c1Cl)CC(=O)/C=C/C=C\[C@H]1O[C@@H]1C[C@@H](C)OC2=O , please?
Result: 91
